Tested on: Bacillus spizizenii
Assay: Antibacterial activity against Bacillus subtilis ATCC 6633 after 24 hrs by microtiter plate method
Format: functional
Conditions: ATCC 6633, 24 h
measurement_label: MIC (µg/mL)

1. O=Cc1cn(-c2nc(-c3cc4cc(Cl)ccc4oc3=O)cs2)nc1-c1ccccc1 :: 130
2. O=Cc1cn(-c2nc(-c3cc4ccccc4oc3=O)cs2)nc1-c1ccccc1 :: 132
3. O=Cc1cn(-c2nc(-c3cc4cc(Cl)ccc4oc3=O)cs2)nc1-c1ccc(Cl)cc1 :: 112
4. O=Cc1cn(-c2nc(-c3cc4cc(Br)ccc4oc3=O)cs2)nc1-c1ccc(Cl)cc1 :: 120
5. Cc1ccc(-c2nn(-c3nc(-c4cc5cc(Cl)cc(Cl)c5oc4=O)cs3)cc2C=O)cc1 :: 98.2
6. O=Cc1cn(-c2nc(-c3cc4cc(Cl)cc(Cl)c4oc3=O)cs2)nc1-c1ccccc1 :: 123
7. O=Cc1cn(-c2nc(-c3cc4cc(Br)cc(Br)c4oc3=O)cs2)nc1-c1ccccc1 :: 118

---

System: Staphylococcus aureus
Experiment: Antibacterial activity against methicillin-resistant Staphylococcus aureus NCTC 13616 assessed as growth inhibition at 100 ug/ml after 24 hrs by agar well diffusion method
Format: functional, organism-based
Active and inactive are the calls of the source. The rule behind the calls is not given here.
Outcome codes: active, inactive

1. O=Cc1cn(-c2nc(-c3cc4cc(Cl)cc(Cl)c4oc3=O)cs2)nc1-c1ccc(Cl)cc1 :: active
2. COc1cccc2cc(-c3csc(-n4cc(C=O)c(-c5ccc(C)cc5)n4)n3)c(=O)oc12 :: inactive
3. Cc1ccc(-c2nn(-c3nc(-c4cc5ccccc5oc4=O)cs3)cc2C=O)cc1 :: inactive
4. O=Cc1cn(-c2nc(-c3cc4cc(Br)cc(Br)c4oc3=O)cs2)nc1-c1ccccc1 :: active
5. Cc1ccc(-c2nn(-c3nc(-c4cc5cc(Br)cc(Br)c5oc4=O)cs3)cc2C=O)cc1 :: active
6. O=Cc1cn(-c2nc(-c3cc4cc(Cl)ccc4oc3=O)cs2)nc1-c1ccccc1 :: inactive
7. Cc1ccc(-c2nn(-c3nc(-c4cc5cc(Br)ccc5oc4=O)cs3)cc2C=O)cc1 :: active
8. COc1cccc2cc(-c3csc(-n4cc(C=O)c(-c5ccc(Cl)cc5)n4)n3)c(=O)oc12 :: active
9. O=Cc1cn(-c2nc(-c3cc4cc(Br)ccc4oc3=O)cs2)nc1-c1ccccc1 :: active

---

Tested on: Bacillus spizizenii
Test: Antibacterial activity against Bacillus subtilis ATCC 6633 after 24 hrs by microtiter plate method
Type: functional
Conditions: ATCC 6633, 24 h
Entries annotated with measured log10 of MIC
measurement_label: log10 of MIC (log10 of the value in µg/mL)

1) O=Cc1cn(-c2nc(-c3cc4cc(Br)ccc4oc3=O)cs2)nc1-c1ccccc1 :: 2.10
2) COc1cccc2cc(-c3csc(-n4cc(C=O)c(-c5ccc(C)cc5)n4)n3)c(=O)oc12 :: 2.18
3) CC1(C)S[C@@H]2[C@H](NC(=O)[C@H](N)c3ccccc3)C(=O)N2[C@H]1C(=O)O :: 0.70
4) O=Cc1cn(-c2nc(-c3cc4cc(Cl)cc(Cl)c4oc3=O)cs2)nc1-c1ccc(Cl)cc1 :: 2.05
5) O=Cc1cn(-c2nc(-c3cc4c(ccc5ccccc54)oc3=O)cs2)nc1-c1ccccc1 :: 2.09
6) COc1cccc2cc(-c3csc(-n4cc(C=O)c(-c5ccc(Cl)cc5)n4)n3)c(=O)oc12 :: 2.12
7) Cc1ccc(-c2nn(-c3nc(-c4cc5cc(Br)cc(Br)c5oc4=O)cs3)cc2C=O)cc1 :: 1.97
8) Cc1ccc(-c2nn(-c3nc(-c4cc5ccccc5oc4=O)cs3)cc2C=O)cc1 :: 2.18
9) Cc1ccc(-c2nn(-c3nc(-c4cc5cc(Br)ccc5oc4=O)cs3)cc2C=O)cc1 :: 2.10

---

Tested on: Bacillus cereus
Assay: Bactericidal activity against Bacillus cereus ATCC 14579 after 24 hrs
Type: functional
Conditions: ATCC 14579, 24 h, read-out: MBC99.9
Listed next: entries and their corresponding MBC.
measurement_label: MBC (µg/mL)

1) Cc1ccc(-c2nn(-c3nc(-c4cc5ccccc5oc4=O)cs3)cc2C=O)cc1 :: 270
2) O=Cc1cn(-c2nc(-c3cc4cc(Cl)ccc4oc3=O)cs2)nc1-c1ccc(Cl)cc1 :: 165
3) O=Cc1cn(-c2nc(-c3cc4c(ccc5ccccc54)oc3=O)cs2)nc1-c1ccccc1 :: 275
4) Cc1ccc(-c2nn(-c3nc(-c4cc5cc(Br)ccc5oc4=O)cs3)cc2C=O)cc1 :: 250
5) Cc1ccc(-c2nn(-c3nc(-c4cc5cc(Br)cc(Br)c5oc4=O)cs3)cc2C=O)cc1 :: 110
6) O=Cc1cn(-c2nc(-c3cc4cc(Br)ccc4oc3=O)cs2)nc1-c1ccc(Cl)cc1 :: 170
7) O=Cc1cn(-c2nc(-c3cc4cc(Cl)cc(Cl)c4oc3=O)cs2)nc1-c1ccc(Cl)cc1 :: 220
8) Cc1ccc(-c2nn(-c3nc(-c4cc5cc(Cl)cc(Cl)c5oc4=O)cs3)cc2C=O)cc1 :: 150
9) O=Cc1cn(-c2nc(-c3cc4cc(Br)cc(Br)c4oc3=O)cs2)nc1-c1ccccc1 :: 240
10) COc1cccc2cc(-c3csc(-n4cc(C=O)c(-c5ccc(Cl)cc5)n4)n3)c(=O)oc12 :: 250
11) O=Cc1cn(-c2nc(-c3cc4cc(Br)ccc4oc3=O)cs2)nc1-c1ccccc1 :: 260
12) COc1cccc2cc(-c3csc(-n4cc(C=O)c(-c5ccc(C)cc5)n4)n3)c(=O)oc12 :: 275
13) O=Cc1cn(-c2nc(-c3cc4cc(Cl)cc(Cl)c4oc3=O)cs2)nc1-c1ccccc1 :: 175
14) O=Cc1cn(-c2nc(-c3cc4ccccc4oc3=O)cs2)nc1-c1ccccc1 :: 290
15) O=Cc1cn(-c2nc(-c3cc4cc(Cl)ccc4oc3=O)cs2)nc1-c1ccccc1 :: 275
16) CC1(C)S[C@@H]2[C@H](NC(=O)[C@H](N)c3ccccc3)C(=O)N2[C@H]1C(=O)O :: 8

---

Target sequence: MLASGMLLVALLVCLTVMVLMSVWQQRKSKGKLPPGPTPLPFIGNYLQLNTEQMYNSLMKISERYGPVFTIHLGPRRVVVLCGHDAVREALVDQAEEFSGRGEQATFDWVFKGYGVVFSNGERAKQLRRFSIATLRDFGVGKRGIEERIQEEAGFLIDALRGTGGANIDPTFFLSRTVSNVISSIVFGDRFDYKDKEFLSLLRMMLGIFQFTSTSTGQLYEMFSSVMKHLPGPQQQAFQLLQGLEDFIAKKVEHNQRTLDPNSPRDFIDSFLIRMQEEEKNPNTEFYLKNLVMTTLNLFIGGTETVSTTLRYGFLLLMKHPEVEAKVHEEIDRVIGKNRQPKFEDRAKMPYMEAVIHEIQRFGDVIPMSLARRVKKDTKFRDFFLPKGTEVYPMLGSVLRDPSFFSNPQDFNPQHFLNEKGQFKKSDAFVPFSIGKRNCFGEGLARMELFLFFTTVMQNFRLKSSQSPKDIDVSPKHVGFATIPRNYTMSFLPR
pKi: −log10 of the molar value.
measurement_label: pKi

1. O=Cc1cn(-c2nc(-c3cc4cc(Br)ccc4oc3=O)cs2)nc1-c1ccc(Cl)cc1 :: 7.88
2. COc1cccc2cc(-c3csc(-n4cc(C=O)c(-c5ccc(C)cc5)n4)n3)c(=O)oc12 :: 8.71
3. O=Cc1cn(-c2nc(-c3cc4ccccc4oc3=O)cs2)nc1-c1ccccc1 :: 7.89
4. COc1cccc2cc(-c3csc(-n4cc(C=O)c(-c5ccc(Cl)cc5)n4)n3)c(=O)oc12 :: 8.49
5. Cc1ccc(-c2nn(-c3nc(-c4cc5cc(Br)ccc5oc4=O)cs3)cc2C=O)cc1 :: 8.81
6. Cc1ccc(-c2nn(-c3nc(-c4cc5cc(Br)cc(Br)c5oc4=O)cs3)cc2C=O)cc1 :: 8.76
7. Cc1ccc(-c2nn(-c3nc(-c4cc5ccccc5oc4=O)cs3)cc2C=O)cc1 :: 7.96
8. O=Cc1cn(-c2nc(-c3cc4cc(Cl)ccc4oc3=O)cs2)nc1-c1ccccc1 :: 8.59
9. O=Cc1cn(-c2nc(-c3cc4cc(Cl)cc(Cl)c4oc3=O)cs2)nc1-c1ccccc1 :: 8.51
10. O=Cc1cn(-c2nc(-c3cc4cc(Cl)ccc4oc3=O)cs2)nc1-c1ccc(Cl)cc1 :: 7.78

---

The following compounds are shown together with reported MBC values.
Test system: Proteus vulgaris
Test: Bactericidal activity against Proteus vulgaris ATCC 13315 after 24 hrs
Assay type: functional
Settings: ATCC 13315, 24 h, read-out: MBC99.9
measurement_label: MBC (µg/mL)

1) O=Cc1cn(-c2nc(-c3cc4cc(Cl)ccc4oc3=O)cs2)nc1-c1ccccc1 :: 260
2) O=Cc1cn(-c2nc(-c3cc4c(ccc5ccccc54)oc3=O)cs2)nc1-c1ccccc1 :: 300
3) Cc1ccc(-c2nn(-c3nc(-c4cc5cc(Br)cc(Br)c5oc4=O)cs3)cc2C=O)cc1 :: 150
4) COc1cccc2cc(-c3csc(-n4cc(C=O)c(-c5ccc(C)cc5)n4)n3)c(=O)oc12 :: 285
5) Cc1ccc(-c2nn(-c3nc(-c4cc5cc(Cl)cc(Cl)c5oc4=O)cs3)cc2C=O)cc1 :: 210
6) O=Cc1cn(-c2nc(-c3cc4cc(Cl)cc(Cl)c4oc3=O)cs2)nc1-c1ccc(Cl)cc1 :: 225
